target: T1, NANP6 peptide (Plasmodium falciparum NF54); test: SPR; Carterra LSA; mAb amine-coupled to a CMD200M chip, peptide titrated in 2-fold steps up to 8 ug/mL without regeneration; 25 C; HBSTE (10 mM HEPES pH 7.4, 150 mM NaCl, 3 mM EDTA, 0.01% Tween 20); 1:1 Langmuir model; mean of triplicates; KD includes avidity for antigens with several repeats; conditions: both partners purified
T1 construct: source: synthetic peptide (CPC Scientific)
pKd: −log10 of the molar value.
reported-endpoint: pKd

1. Ky15.7 (antibody, V domains shown, source: CHO-3E7, purified (MabSelect SuRe LX)) VH: QVQVVESGGGAVQPGRSLRLSCAASGFTFSNRGMHWVRQTPGKGLEWVAIIWYDGGNKFYADSVKGRFTISRDNSKNTLYLQMNSLRDEDTAVYYCVRAGDWKADKYTMDVWGQGTTVTVSS VL: DIQMTQSPSTLSASVGDRVTITCRASQSISSWLAWYQQKPGKAPKVLIYQASSLESGVPSRFSGSGSGTEFTLTISSLQPDDFATYYCQQYNSYWTFGQGTKVEIK : 9.95
2. Ky15.1 (antibody, V domains shown, source: CHO-3E7, purified (MabSelect SuRe LX)) VH: QVQLVESGGGVVQPGRSLRLSCAASGFTFSNFGMHWVRQTPDRGLEWVAIIWFDGSNTFYADSVKGRFTISRDNYKNTLYLQMNSLRAEDTAVYFCARSFYSDSAGSLFDYWGQGTLVTVSS VL: DIQMTQSPSTLSASVGDRVTITCRASQSISSWVAWYQQKPGKAPKLLIYKASDLETGVPSRFSGSGSGTEFTLTISGLQPDDFVTYYCLQNMRYWTFGQGTKVEIK : 10.42

// data source = paper PMC10720262
